test: surface tension by Du Noüy ring method, Krüss K20 EasyDyne tensiometer; format: physicochemical; conditions: 12.5 % w/w solvent in water, room temperature
propertyMeasured: Surface tension

>>> observedmeasurement("CC(C)O [Isopropyl Alcohol, isopropyl alcohol]")
"35.7 dynes/cm"

Which Surface tension value is on record for CO[C@H]1CO[C@H]2[C@@H]1OC[C@H]2OC [Dimethyl Isosorbide, dimethyl isosorbide] ?
46.4 dynes/cm

Form field: reported Surface tension of CCO [Ethanol (200 proof), ethanol]
44.6 dynes/cm

Which Surface tension is reported for this compound? CCOCCOCCO [Ethoxy Diglycol NF, ethoxydiglycol]
50.4 dynes/cm

###

experiment: surface tension by Du Noüy ring method, Krüss K20 EasyDyne tensiometer; format: physicochemical; conditions: 25 % w/w solvent in water, room temperature
So basically, if Surface tension comes in under 40 dynes/cm it's condition met, and if it's 40 dynes/cm or more it's condition not met.

Consider the worked cases shown below.
>>> assignedclass("CCO")
"condition met"
>>> assignedclass("CC(O)CO (stereo not shown)")
"condition not met"
>>> assignedclass("CC(C)O")
"condition met"
>>> assignedclass("OCC(O)CO")
"condition not met"
>>> assignedclass("OCCCO")
"condition not met"
>>> assignedclass("CCOCCOCCO")
"condition not met"

As a next step, examine the molecule that follows.
Take the molecule CO[C@H]1CO[C@H]2[C@@H]1OC[C@H]2OC [Dimethyl Isosorbide, dimethyl isosorbide] and say whether its Surface tension is less than 40 dynes/cm.
condition not met
